Quick reference for IC50 among some compounds
target: L-lactate dehydrogenase A chain (Homo sapiens); assay: Inhibition of GS[HiBiT]GS-tagged LDHA (unknown origin) expressed in HEK-293T cells measured after 1 hr by […]; format: cell-based
value_kind: IC50 (µM)

> print(dat)
                                   compound  result.units  value.measured
1  NS(=O)(=O)c1ccc(Cc2c(-c3ccc(F)c(C#CCC4CCCC4)c3)nn(-c3nc(C(=O)O)cs3)c2CC2CC2)cc1F            µM           0.178
2  Cc1cnc(C#Cc2cccc(-c3nn(-c4nc(C(=O)O)cs4)c(CC4CC4)c3Cc3ccc(S(N)(=O)=O)c(F)c3)c2)o1            µM           0.119
3  NS(=O)(=O)c1ccc(Cc2c(-c3cccc(-c4ccccc4)c3)nn(-c3nc(C(=O)O)cs3)c2CC2CC2)cc1F            µM            0.15
4  NS(=O)(=O)c1ccc(Cc2c(-c3cccc(C#Cc4ccc(C5CCC5)s4)c3)nn(-c3nc(C(=O)O)cs3)c2CC2CC2)cc1F            µM            0.27
5  NS(=O)(=O)c1ccc(Cc2c(-c3cccc(-c4ccccc4)c3)nn(-c3nc(C(=O)O)cs3)c2CC2CC2(F)F)cc1 (stereo unspecified)            µM           0.501
6  Cc1ccc(C#Cc2cccc(-c3nn(-c4nc(C(=O)O)cs4)c(CC4CC4)c3Cc3ccc(S(N)(=O)=O)c(F)c3)c2)o1            µM           0.168
